B1: BTBD1 (parent)
chain: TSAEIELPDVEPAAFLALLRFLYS

Variants of: B1
Assay: protein stability index of a GFP-peptide fusion (GPS, HEK-293T) (PSI 1-6); higher = more stable;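 further: lentivirally expressed fusions sorted by FACS into six bins by GFP to DsRed ratio, PSI derived from sequencing read proportions per bin multiplied by bin number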
Conditions: c terminus: a fixed tail appended
Recorded protein stability index by entry
assay.readout: protein stability index

D9Q; 2.45
D9S; 2.12
L18F; 1.73
A13T; 2.17
F15Q; 1.83
L19C; 1.94
A13P; 2.05
L16I; 1.62
Y23L; 2.57
L19A; 1.9
A14E; 1.66
E6A; 2.19
L7G; 1.89
L16M; 1.8
L19G; 1.89
L16P; 1.94
P8A; 1.97
A17V; 1.99
L22E; 2.07
A17N; 2.06
E11T; 2.4
R20V; 3.16
E6T; 2.1
A3M; 1.52
L16W; 1.96
P8W; 1.53
E4R; 1.59
S24W; 1.89
T1H; 2.15
A17H; 1.67
E11W; 1.69
P8R; 1.93
D9M; 2.11
E4T; 1.73
V10K; 1.69
Y23S; 1.36
Y23T; 1.94
T1M; 2.46
Y23H; 1.6
S24Y; 1.94
S2N; 1.49
L19W; 1.98
S2V; 1.87
L16R; 1.64
P12M; 1.46
F15T; 1.78
